Tested on: NCI-H23 lung
assay-remarks: NCI tumour cell line growth inhibition, 48 h; in the data active = GI50 below about 0.43 µM; inactive = the rest
Log the outcome using a class from 1 (yes) (active), 0 (no) (inactive)

// below: answered compounds
{"columns": ["compound", "assigned-category"],
 "data": [
  ["Fc1cc(-c2nnc3n2N=C(c2ccc(Cl)cc2Cl)CS3)c(Cl)cc1Cl", "0 (no)"],
  ["Cc1n(Cc2ccc3ccccc3c2)c(Cl)c(Cl)[n+]1Cc1ccc2ccccc2c1", "0 (no)"],
  ["COc1ccc2cc(-c3c(-c4ccncc4)nc(-c4ccc(S(C)=O)cc4C)n3C)ccc2c1 (stereo not given)", "0 (no)"],
  ["COc1ccc2[nH]c(-c3ccccc3)cc2c1", "0 (no)"]
]}

Answer briefly: the call reported for C[C@@H]1C/C=C\C(=O)O[C@H](/C=C/C#C/C=C/C(C)(C)[C@@H](O)c2cccc(O)c2Br)[C@@H](C)/C=C/[C@H](C)C[C@H](OC(N)=O)C1 in this assay.
1 (yes)

Test call, this compound: CC(C)(CO)N=Cc1ccccc1[O-].CC(C)(CO)N=Cc1ccccc1[O-].[Co+2]
0 (no)

* * *

Test system: BT-549 breast
assay-remarks: NCI tumour cell line growth inhibition, 48 h
Field: GI50. Provide a value for each of the molecules that follow.

{"columns": ["molecule", "measured-property", "observed-measurement"],
 "data": [
  ["CN(C)C(=O)SC1=C(c2c(Cl)cccc2Cl)C(=O)c2ccccc21", "GI50", "9.78 µM"]
]}

Field: GI50. Fill in for each record below.
1. Nc1ccn([C@@H]2C(F)=C(CO)[C@@H](O)[C@H]2O)c(=O)n1
2. Fc1c[c-]c(-c2ccccn2)c(F)c1.[CH3-].[Pt+2].c1ccc(P(C[PH+](c2ccccc2)c2ccccc2)c2ccccc2)cc1
3. O=C(/C=C/c1cn(-c2ccccc2)nc1-c1ccc([N+](=O)[O-])cc1)c1ccc(Cl)cc1
4. Cc1n(Cc2ccc3ccccc3c2)c(Cl)c(Cl)[n+]1Cc1ccc2ccccc2c1
5. CCN(CC)CCOc1ccc(/C=C2\CC3C4CC=C5C[C@@H](OC(C)=O)CC[C@]5(C)C4CC[C@]3(C)C2=O)cc1OC (some centres undefined)
6. NC(=O)c1cc(I)ccc1NC(=O)COc1ccccc1

1. 23.5 µM
2. 0.492 µM
3. 3.13 µM
4. 1.65 µM
5. 11.4 µM
6. 0.644 µM

Hi there! I need GI50 for each item below, if you can.
1. COc1ccc(-c2nc3c(c(=O)n2C(C)=O)C(c2ccc(Cl)cc2)c2sc4c(Cl)cccc4c2O3)cc1 (centres undefined)
2. O=C(CCN1CCCC1)Nc1ccc2c(Nc3ccccc3)c3ccccc3nc2c1

["0.355 µM", "1.5 µM"]

* * *

Tested on: NCI-H23 lung
assay-remarks: NCI tumour cell line growth inhibition, 48 h
measured-property: GI50

{"columns": ["compound", "measured-property", "observed-measurement"],
 "data": [
  ["O=C(O)C1C(C(=O)O)C2(Cl)C(Cl)=C(Cl)C1(Cl)C2(Cl)Cl.[Cd] (centres undefined)", "GI50", "2.62 µM"],
  ["CCOCNc1ccc(N2C(=O)/C(=C/c3ccc(N(CC)CC)cc3)N=C2c2ccccc2)cc1", "GI50", "27.3 µM"],
  ["c1ccc(CC(NCCNC(Cc2ccccc2)c2ccccc2)c2ccccc2)cc1 (centres undefined)", "GI50", "0.589 µM"]
]}

Now for the compound whose GI50 we want.
Entry CCC(=O)c1cc([N+](=O)[O-])c(Br)s1 — recorded GI50 = 17.3 µM

* * *

For each record, write down the corresponding log10 of TGI.
Tested on: TK-10 renal
assay-remarks: NCI tumour cell line growth inhibition, 48 h
Answers are given as log10 of TGI in µM.

Worked set:
{"columns": ["structure-notation", "log10 of TGI"],
 "data": [
  ["COc1ccc(-c2cc(/C=C/C(=O)c3cc(OC)c(OC)c(OC)c3)[nH]n2)cc1OC", 1.07],
  ["O=C(Nc1ccc(Cl)cc1)Nc1ccccc1CNc1nc(Nc2ccc(OCCN3CCCC3)cc2)ncc1Cl", 0.28],
  ["COC(=O)n1c(C[P+](c2ccccc2)(c2ccccc2)c2ccccc2)cc2ccccc21", 0.96],
  ["CC1=C2NCN(C)N=C2C(C#N)(C#N)C1(C#N)C#N", 1.49],
  ["CC(=O)NC1=C(NCC(C)C)C(=O)c2ccccc2C1=O", 1.61],
  ["CC1=C2C(=O)c3ccccc3C(=O)[C@H]2C[C@@H](N2CCCCCC2=O)O1", 1.58],
  ["NC(=O)C(=O)n1ncc(Cl)c(Cl)c1=O", 1.71],
  ["COC(=O)c1cc2c3c(ccc2[nH]1)N(C(=O)c1cc2c4c(ccc2[nH]1)N(C(=O)c1cc2c5c(ccc2[nH]1)N(C(N)=O)CC5)CC4)CC3", 1.67],
  ["C=C[C@@](C)(/C=C/c1ccc(O)cc1)CCC=C(C)C", 1.51]
]}

# log10 of TGI (molecule: Cc1n(Cc2ccc3ccccc3c2)c(Cl)c(Cl)[n+]1Cc1ccc2ccccc2c1 ) is 0.55

* * *

System: UO-31 renal
assay-remarks: NCI tumour cell line growth inhibition, 48 h
measured-property: TGI (µM)
Answers are plain numbers, in µM.

{"columns": ["compound", "system", "observed-measurement"],
 "data": [
  ["NC(N)=N/N=C/c1c(-c2ccc(Cl)c([N+](=O)[O-])c2)nc2n1CCS2", "UO-31 renal", 89],
  ["CC1(C)[C@@H]2CC[C@@]1(C)[C@H](O)[C@@H]2SCc1ccccc1", "UO-31 renal", 35.4],
  ["CC(C)CCCC(C)[C@H]1CC[C@H]2N=C(Nc3ccccc3)CCC[C@]12C (stereo not given in full)", "UO-31 renal", 3.12]
]}

Below: the item to evaluate.
TGI reading for Fc1c[c-]c(-c2ccccn2)c(F)c1.[CH3-].[Pt+2].c1ccc(P(C[PH+](c2ccccc2)c2ccccc2)c2ccccc2)cc1 : 1.41

* * *

Test system: HOP-62 NSCLC
assay-remarks: NCI tumour cell line growth inhibition, 48 h
Kindly supply the reported TGI values for the records listed here.

Here's what some known entries look like.
{"columns": ["compound", "observed-measurement"],
 "data": [
  ["O=C(/C=C/c1ccco1)c1cccc(C(=O)/C=C/c2ccco2)n1", "> 88.6 µM"],
  ["CC(C)(C)OC(=O)N1CCc2c(n(C/C=C/c3ccccc3)[nH]c2=O)C1", "> 100 µM"],
  ["CC12CC(C/C1=N/O)C(C)(C)C2 (stereo not given)", "> 100 µM"]
]}

// input: 6 compounds below; output: TGI for each
1. Cc1ccc(/C=C2\CN(C)CC3C2=NC(=S)NC3c2ccc(C)cc2)cc1 (stereo not given)
2. CCCCCCCCCCCCCCCCOCC(Cl)COP(=O)(O)OP(=O)(O)OCC1OC(n2cnc3c(N)ncnc32)C(O)C1O (stereo not given)
3. Fc1c[c-]c(-c2ccccn2)c(F)c1.[CH3-].[Pt+2].c1ccc(P(C[PH+](c2ccccc2)c2ccccc2)c2ccccc2)cc1
4. C=C1CC(Cn2cc(Br)c(=O)[nH]c2=O)(c2ccc(-c3ccccc3)cc2)OC1=O (stereo not given)
5. COc1ccc(-c2cc(/C=C/C(=O)c3cc(OC)c(OC)c(OC)c3)[nH]n2)cc1OC
6. CN(C)C(=O)SC1=C(c2c(Cl)cccc2Cl)C(=O)c2ccccc21

1: > 100 µM; 2: > 100 µM; 3: 3.71 µM; 4: 19.3 µM; 5: 3.59 µM; 6: 36.7 µM

* * *

System: MDA-MB-435
assay-remarks: NCI tumour cell line growth inhibition, 48 h
Given measured TGI, output class 1 if it is greater than or equal to 10 µM and class 0 if not.

Examples from the recorded data:
{"columns": ["compound", "assigned-category"],
 "data": [
  ["c1cnc2[nH]cc(-c3csc(-c4cn(CCCN5CCCCC5)c5ccccc45)n3)c2c1", "class 0"],
  ["Cn1cc(CO)c2ccccc21", "class 1"],
  ["CC(C)(C)[Si](C)(C)OCC1OC(n2cnc3c(N)ncnc32)C(O)C1O (stereo not given)", "class 1"],
  ["CCN1C(=O)CS/C1=N/NC(=O)C(O)(c1ccccc1)C1C=CC=CC1 (stereo not given)", "class 1"],
  ["COc1ccc(C2ONC3=NCCN32)cc1 (stereo not given)", "class 1"]
]}

Does the reported TGI for Nc1ccn([C@@H]2C(F)=C(CO)[C@@H](O)[C@H]2O)c(=O)n1 fall at or above the 10 µM mark?
class 1

Item O=C(/C=C/c1ccco1)c1cccc(C(=O)/C=C/c2ccco2)n1 with TGI of 10 µM or above?
class 1

Does the compound NC(N)=N/N=C/c1c(-c2ccc(Cl)c([N+](=O)[O-])c2)nc2n1CCS2 have recorded TGI that is 10 µM or more?
class 1

Could you verify whether the entry C=C(CNCCc1ccc(O)cc1)[C@@H]1CC[C@]2(CO)CC[C@]3(C)[C@H](CC[C@@H]4[C@@]5(C)CCC(N)C(C)(C)[C@@H]5CC[C@]43C)[C@@H]12 (stereo not given in full) shows TGI of no less than 10 µM?
class 0

Determine whether this compound has TGI no lower than 10 µM: O=C(Cc1ccc(/C=C/C(=O)c2ncc[nH]2)cc1)Nc1ccc(C(F)(F)F)cc1
class 1
